# Test system: 958667-338-R-J2-PDC tumor spheroids viability;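 also: spheroids exposed to compounds for seven days before readout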
# measurement_description: Anticancer human tumor 958667-338-R-J2-PDC patient-derived colon adenocarcinoma cell line growth inhibition [PI3K]
# test_conditions: second compound 0.0316 µM; first compound 3.16 µM; hits give low values; spheroids with HUVEC and MSC
endpoint: viability, T/C (%)
Please respond with the number in % and leave the unit unwritten.

Query: Name the recorded viability, T/C of the compound listed here: CC1(C)CCC(Nc2ncc(C(F)(F)F)c(-c3c[nH]c4c(P(C)(C)=O)c(C#N)ccc34)n2)CN1 (stereo not drawn) + COc1c(OCCCN2CCOCC2)ccc2c3n(c(=NC(=O)c4cnc(N)nc4)nc12)CCN3
Reply: 60.4

---
Query: Name the recorded viability, T/C of the compound listed here: C#Cc1c(F)ccc2cc(O)cc(-c3ncc4c(N5CC6CCC(C5)N6)nc(OCC56CCCN5CC(F)C6)nc4c3F)c12 (stereo not drawn) + COc1c(OCCCN2CCOCC2)ccc2c3n(c(=NC(=O)c4cnc(N)nc4)nc12)CCN3
Reply: 62.1

Query: Name the recorded viability, T/C of the compound listed here: C=CC(=O)N1CCN(c2nc(=O)n(-c3c(C)ccnc3C(C)C)c3nc(-c4c(O)cccc4F)c(F)cc23)C(C)C1 (stereo not drawn) + CC(Nc1ccc2c(c1)OCCn1cc(N3C(=O)OCC3C(F)F)nc1-2)C(N)=O
Reply: 89.7
